Target: human P2X3 receptor (Homo sapiens (Human))
Test: P2X3 receptor inhibition, ATP-evoked Fluo-3 calcium fluorescence (FDSS 3000)
Conditions: C6BU-1 cell transfected with human P2X3 receptor gene; ATP-evoked Fluo-3 fluorescence
Assay Readout: IC50 (nM)

query: Provide human P2X3 receptor (Homo sapiens (Human)) IC50 reading for `COc1ccccc1[C@H]1C(C(=O)CC(C)C)=C(O)C(=O)N1c1ccc(-c2ccsc2)cc1` .
result: 477

query: Fill in IC50 for COc1ncccc1C1C(C(=O)C(C)C)=C(O)C(=O)N1c1ccc(-c2ccsc2)cc1 (stereo not shown) tested with human P2X3 receptor (Homo sapiens (Human)).
result: 86

query: Enter recorded IC50 with human P2X3 receptor (Homo sapiens (Human)) for COc1ccc(C(=O)C2=C(O)C(=O)N(c3ccc(-c4ccoc4)cc3)C2C2CCCCC2)cc1 (stereo not shown) here.
result: 12

query: State IC50 on human P2X3 receptor (Homo sapiens (Human)). Entry: COCc1ncccc1C1C(C(=O)CC(C)C)=C(O)C(=O)N1c1ccc(-c2ccsc2)cc1 (stereo not shown)
result: 109

query: Give IC50 for this entry on human P2X3 receptor (Homo sapiens (Human)): CSc1ccc(N2C(=O)C(O)=C(C(=O)C(C)C)C2c2ccccc2OCC#N)cc1 (stereo not shown)
result: 247

(1) Cc1nc(-c2ccc(N3C(=O)C(O)=C(C(=O)C(C)C)C3c3ccccc3OC(F)(F)F)cc2)no1 (stereo not shown)
(2) Cc1cc(-c2ccc(N3C(=O)C(O)=C(C(=O)C(C)C)C3c3ccccc3OC(C)C)cc2)cs1 (stereo not shown)
query: So which one has the bigger IC50 here, 1 or 2 ? # respond with the chosen item's label
result: 1

(P) COc1ccccc1C1C(C(=O)C(C)C)=C(O)C(=O)N1c1ccc(-c2cscn2)cc1 (stereo not shown)
(Q) CC(C)c1n[nH]c2c1C(c1cccnc1OCC(=O)O)N(c1ccc(-c3ccsc3)cc1)C2=O (stereo not shown)
query: Lab note: check whether P or Q shows the higher recorded IC50. Refer to your chosen entry by its label in the reply.
result: P
(P: 322 nM, Q: 33 nM)

----------
Molecular target: human P2X3 receptor (Homo sapiens (Human), UniProt P56373)
Sequence (P56373 whole entry): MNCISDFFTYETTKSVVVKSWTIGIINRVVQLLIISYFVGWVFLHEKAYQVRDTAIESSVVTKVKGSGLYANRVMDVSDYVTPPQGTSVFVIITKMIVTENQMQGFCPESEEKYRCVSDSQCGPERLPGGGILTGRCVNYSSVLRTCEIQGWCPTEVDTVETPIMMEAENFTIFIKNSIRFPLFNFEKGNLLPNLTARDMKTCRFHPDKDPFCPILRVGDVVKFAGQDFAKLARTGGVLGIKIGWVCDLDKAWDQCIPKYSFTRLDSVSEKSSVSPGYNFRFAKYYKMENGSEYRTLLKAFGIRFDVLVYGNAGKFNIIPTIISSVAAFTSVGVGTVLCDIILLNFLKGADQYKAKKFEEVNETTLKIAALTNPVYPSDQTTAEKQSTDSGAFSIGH
Experiment: P2X3 receptor inhibition, ATP-evoked Fluo-3 calcium fluorescence (FDSS 3000)
Conditions: C6BU-1 cell transfected with human P2X3 receptor gene; ATP-evoked Fluo-3 fluorescence
Experimental: Stably expressing cell line (C6BU-1 cell transfected with human P2X3 receptor gene (GenBank accession number Y07683)) was used. […] Five minutes after, 40 nM ATP solution (50 μL) prepared by dilution with the dilution buffer was dispensed through the built-in automatic dispenser, and the measurement of fluorescence intensity was continued for 3 min. […] FDSS software (Hamamatsu Photonics K.K.) was used for calculation of the specific maximum fluorescence intensity. […]
pIC50: −log10 of the molar value.
Assay Readout: pIC50

query: Quickly give me recorded pIC50 for COc1ncccc1C1C(C(=O)C(C)(C)C)=C(O)C(=O)N1c1ccc(-c2ccsc2)cc1 (stereo not drawn)
result: 7.11

query: Give me measured pIC50, please, for this compound: CC(C)CC(=O)C1=C(O)C(=O)N(c2ccc(-c3ccoc3)cc2)C1c1ccccc1C(=O)N(C)C (stereo not drawn)
result: 6.82

query: State its pIC50: COc1ccc(C(=O)C2=C(O)C(=O)N(c3ccc(-c4nc(C)no4)cc3)C2c2ccccc2OC)cc1 (stereo not drawn)
result: 6.80

query: Input Cc1ccc(-c2ccc(N3C(=O)C(O)=C(C(=O)C(C)C)C3c3ccccc3CCC(=O)N(C)C)cc2)o1 (stereo not drawn) , output reported pIC50.
result: 7.08

query: Provide one value: measured pIC50 of COCOc1ccccc1C1C(C(=O)C(C)C)=C(O)C(=O)N1c1ccc(-c2noc(C)n2)cc1 (stereo not drawn)
result: 6.92

query: Return reported pIC50. Input compound: COc1ccccc1C1c2c(C(C)(C)C)n[nH]c2C(=O)N1c1ccc(C(C)C)cc1 (stereo not drawn)
result: 6.97

----------
Biological target: UniProt:P56373
Assay: P2X3 receptor inhibition, ATP-evoked Fluo-3 calcium fluorescence (FDSS 3000)
Settings: C6BU-1 cell transfected with human P2X3 receptor gene; ATP-evoked Fluo-3 fluorescence
Assay Readout: IC50 (nM)

// worked examples, IC50 included
query: Provide IC50 value for the following molecule: COCc1ncccc1C1C(C(=O)C(C)C)=C(O)C(=O)N1c1ccc(-c2ccsc2)cc1 (centres unmarked)
result: 63

query: # return recorded IC50 for entry COCCOc1ccccc1C1C(C(=O)C(C)(C)C)=C(O)C(=O)N1c1ccc(-c2noc(C)n2)cc1 (centres unmarked)
result: 91

query: Name the recorded IC50 of the item Cc1cc(-c2ccc(N3C(=O)C(O)=C(C(=O)C(C)C)C3c3ccccc3S(C)(=O)=O)cc2)cs1 (centres unmarked) in your answer.
result: 101

(1) Cc1nc(-c2ccc(N3C(=O)C(O)=C(C(=O)CC(C)C)C3c3ccccc3OCCCO)cc2)no1 (centres unmarked)
(2) Cc1ccc(-c2ccc(N3C(=O)C(O)=C(C(=O)C(C)C)C3c3cccnc3OCCO)cc2)o1 (centres unmarked)
query: Of the two listed items, 1 and 2 , which carries the larger IC50 figure? Output the label that corresponds to your choice.
result: 1

----------
Molecular target: human P2X3 receptor (Homo sapiens (Human), UniProt P56373)
Test: P2X3 receptor inhibition, ATP-evoked Fluo-3 calcium fluorescence (FDSS 3000)
Details: C6BU-1 cell transfected with human P2X3 receptor gene; ATP-evoked Fluo-3 fluorescence
Procedure: Stably expressing cell line (C6BU-1 cell transfected with human P2X3 receptor gene (GenBank accession number Y07683)) was used. […] Five minutes after, 40 nM ATP solution (50 μL) prepared by dilution with the dilution buffer was dispensed through the built-in automatic dispenser, and the measurement of fluorescence intensity was continued for 3 min. […] FDSS software (Hamamatsu Photonics K.K.) was used for calculation of the specific maximum fluorescence intensity. […]
pIC50: −log10 of the molar value.
Assay Readout: pIC50

query: Output measured pIC50 for this item: COc1ccccc1C1C(C(=O)CC(C)C)=C(O)C(=O)N1c1ccc(-c2csc(C)c2)cc1 (stereo not drawn)
result: 6.93

query: Output pIC50 of CC(C)Oc1ccccc1C1C(C(=O)C(C)(C)C)=C(O)C(=O)N1c1ccc(-c2ccon2)cc1 (stereo not drawn)
result: 7.01

query: Item COc1ccccc1C1c2c(C(C)C)n[nH]c2C(=O)N1c1ccc(-c2ccsc2)c(CO)c1 (stereo not drawn) : provide pIC50
result: 6.86
